Target: bovine alpha-lactalbumin (Bos taurus, UniProt P00711)
Construct: purchased Sigma
Assay: Alpha-lactalbumin aggregation (turbidity at 360 nm) induced by DTT
Type: biochemical
Details: α Lactalbumin 0.4 mg/mL, 37° C., DTT; compound 1,000×; standard deviation in parenthesis
Residues, ends and D or L forms follow the SMILES beside them.
Assay endpoint: inhibition index

Write down the reported inhibition index of O=C(O)CCCCCCCC(=O)O [azelaate, azelaic acid] , test system: bovine alpha-lactalbumin (Bos taurus, UniProt P00711).
2.3 (0.6)

Write down the reported inhibition index of O=C(O)C(=O)O [oxalate, oxalic acid] , test system: bovine alpha-lactalbumin (Bos taurus, UniProt P00711).
1.3 (0.2)

---
Write down the reported inhibition index of NCC(=O)NCC(=O)NCC(=O)O [triglycine] (H-Gly-Gly-Gly-OH) , test system: bovine alpha-lactalbumin (Bos taurus, UniProt P00711).
0.9 (0.1)

Write down the reported inhibition index of NCCCCN [1,4-diaminobutane] , test system: bovine alpha-lactalbumin (Bos taurus, UniProt P00711).
1.0 (0.2)

Write down the reported inhibition index of NCC(=O)O [glycine] , test system: bovine alpha-lactalbumin (Bos taurus, UniProt P00711).
1.4 (0.3)

Write down the reported inhibition index of NCCCC(=O)O [4-aminobuytrate, 4-aminobutyric acid] , test system: bovine alpha-lactalbumin (Bos taurus, UniProt P00711).
2.0 (0.8)

----------
inhibition index values by entry
Target: human apolactoferrin (HLF) (Homo sapiens)
Construct: purchased Sigma
Experiment: HLF aggregation (turbidity at 360 nm) induced by DTT
Assay type: biochemical
Settings: HLF 0.4 mg/mL, 43° C., DTT; second HLF column, head 10,000×; standard deviation in parenthesis
Residues, ends and D or L forms follow the SMILES beside them.

Below: 6 compounds and their reported inhibition index.
Sample NCCCCCCCN — what was its inhibition index?
11.0 (2.1)

Sample O=C(O)CCCCCCC(=O)O [suberate, suberic acid] — what was its inhibition index?
95.4 (34.6)

Sample O=C(O)CCC(=O)O [succinate, succinic acid] — what was its inhibition index?
33.7 (11.9)

Sample NCC(=O)O — what was its inhibition index?
1.5 (0.1)

Sample Cl.N=C(N)N [guanidine HCl, guanidine hydrochloride] — what was its inhibition index?
0.9 (0.1)

Sample NCC(=O)NCC(=O)NCC(=O)O [triglycine] (H-Gly-Gly-Gly-OH) — what was its inhibition index?
5.7 (4.0)

---
Sample NCCCC(=O)O [4-aminobuytrate, 4-aminobutyric acid] — what was its inhibition index?
9.5 (1.9)

Sample O=C(O)CCCCC(=O)O [adipate, adipic acid] — what was its inhibition index?
113.0

Sample NCCCCN — what was its inhibition index?
34.5 (13.0)

Sample NCCN — what was its inhibition index?
44.5 (13.9)

Sample NCCCN — what was its inhibition index?
31.5 (12.0)

Sample NCCCCCCN — what was its inhibition index?
18.0 (4.9)

----------
Biological target: porcine heart citrate synthase (CS) (Sus scrofa, UniProt P00889)
Construct: porcine heart citrate synthase (CS); from tissue; host or cells: porcine heart
Sequence (P00889 28-464): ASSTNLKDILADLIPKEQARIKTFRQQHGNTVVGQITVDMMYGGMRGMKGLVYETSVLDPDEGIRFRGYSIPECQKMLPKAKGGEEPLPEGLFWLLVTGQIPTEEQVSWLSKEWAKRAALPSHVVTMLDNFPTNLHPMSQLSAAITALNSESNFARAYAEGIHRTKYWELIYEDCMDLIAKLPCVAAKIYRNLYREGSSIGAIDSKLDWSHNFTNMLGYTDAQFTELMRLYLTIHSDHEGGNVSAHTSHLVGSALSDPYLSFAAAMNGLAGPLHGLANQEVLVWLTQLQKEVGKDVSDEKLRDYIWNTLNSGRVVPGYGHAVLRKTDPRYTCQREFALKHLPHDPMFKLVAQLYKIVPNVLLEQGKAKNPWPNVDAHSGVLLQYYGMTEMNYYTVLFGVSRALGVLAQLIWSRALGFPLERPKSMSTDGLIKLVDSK
Test: Citrate synthase thermal aggregation (turbidity at 360 nm)
Assay type: biochemical
Details: CS 96 μg/mL, 45° C.; compound 50,000X; standard deviation in parenthesis
Assay endpoint: inhibition index

Sample NCCCCCCCN [1,7-diaminoheptane] — what was its inhibition index?
1.7 (0.7)

Sample O=C(O)CCCCCC(=O)O [pimelate, pimelic acid] — what was its inhibition index?
6.7 (0.1)

Sample Cl.N=C(N)N [guanidine HCl, guanidine hydrochloride] — what was its inhibition index?
0.4 (0.1)

Sample O=C(O)C(=O)O [oxalate, oxalic acid] — what was its inhibition index?
6.2 (3.8)

Sample O=C(O)CCCCCCCC(=O)O [azelaate, azelaic acid] — what was its inhibition index?
4.4 (1.8)

Now look at this one.
Sample NCCCCN [1,4-diaminobutane] — what was its inhibition index?
4.0 (2.3)

----------
Target: bovine alpha-lactalbumin (Bos taurus)
Construct: purchased Sigma
Sequence (P00711 20-142): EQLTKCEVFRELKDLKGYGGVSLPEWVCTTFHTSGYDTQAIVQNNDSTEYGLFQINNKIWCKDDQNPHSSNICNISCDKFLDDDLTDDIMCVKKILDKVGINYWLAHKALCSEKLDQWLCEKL
Experiment: Alpha-lactalbumin aggregation (turbidity at 360 nm) induced by DTT
Format: biochemical
Details: α Lactalbumin 0.4 mg/mL, 37° C., DTT; compound 1,000×; standard deviation in parenthesis
Assay endpoint: inhibition index

Sample O=C([O-])CC(=O)[O-].[Na+].[Na+] [malonate, sodium malonate] — what was its inhibition index?
1.8 (0.1)

Sample NCCCCCCC(=O)O [7-aminoheptanoate, 7-aminoheptanoic acid] — what was its inhibition index?
3.9 (2.1)

Sample NCCCCCC(=O)O [6-aminocaproate, 6-aminocaproic acid] — what was its inhibition index?
2.3 (0.6)

Sample NCCCCCN [1,5-diaminopentane] — what was its inhibition index?
0.9 (0.0)

Sample O=C(O)CCCCCC(=O)O [pimelate, pimelic acid] — what was its inhibition index?
1.3 (0.3)

----------
inhibition index values by entry
Target: human apolactoferrin (HLF) (Homo sapiens, UniProt P02788)
Construct: purchased Sigma
Sequence (P02788 20-710): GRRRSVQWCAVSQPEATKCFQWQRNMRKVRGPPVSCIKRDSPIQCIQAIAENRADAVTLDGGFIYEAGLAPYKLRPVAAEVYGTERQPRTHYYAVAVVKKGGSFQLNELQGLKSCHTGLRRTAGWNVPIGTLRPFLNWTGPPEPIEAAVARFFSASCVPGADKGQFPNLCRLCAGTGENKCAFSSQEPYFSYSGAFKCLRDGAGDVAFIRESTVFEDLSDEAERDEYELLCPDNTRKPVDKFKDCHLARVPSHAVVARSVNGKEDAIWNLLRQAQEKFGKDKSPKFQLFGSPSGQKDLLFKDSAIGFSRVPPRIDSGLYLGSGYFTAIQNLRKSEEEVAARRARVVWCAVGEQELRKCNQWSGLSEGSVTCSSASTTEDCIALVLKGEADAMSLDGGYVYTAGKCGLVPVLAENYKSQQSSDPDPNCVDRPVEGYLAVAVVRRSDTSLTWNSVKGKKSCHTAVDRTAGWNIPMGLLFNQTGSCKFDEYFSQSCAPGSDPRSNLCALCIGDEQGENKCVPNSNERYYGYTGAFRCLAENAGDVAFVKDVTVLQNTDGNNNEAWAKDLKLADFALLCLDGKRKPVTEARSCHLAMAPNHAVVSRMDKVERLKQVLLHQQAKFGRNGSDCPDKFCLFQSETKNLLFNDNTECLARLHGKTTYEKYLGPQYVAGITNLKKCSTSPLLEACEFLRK
Assay: HLF aggregation (turbidity at 360 nm) induced by DTT
Format: biochemical
Settings: HLF 0.4 mg/mL, 43° C., DTT; second HLF column, head 10,000×; standard deviation in parenthesis
Description: […] Protein aggregation was monitored for 1 hour at 360 nm using an HP8453 UV-visible spectrophotometer system [Hewlett Packard, Germany]. […] Insulin (0.25 mg/mL (4.39E-5 M)) aggregation was monitored at 25° C. after addition of potential inhibitors and 20 μL of 1 M DTT (1.27E-4 M). Alpha-lactabumin (0.4 mg/mL (2.82E-5 M)) aggregation was monitored at 37° C. in the presence of 20 μL of 1 M DTT (1.27E-4 M). […] FGF-1 (50 μg/mL (3.12E-6 M)) aggregation was monitored at 50° C. […]

Write down the reported inhibition index of NCCC(=O)O [beta-alanine] , test system: human apolactoferrin (HLF) (Homo sapiens, UniProt P02788).
24.2 (4.4)

Write down the reported inhibition index of O=C(O)CCCCCCCC(=O)O [azelaate, azelaic acid] , test system: human apolactoferrin (HLF) (Homo sapiens, UniProt P02788).
1455.0

Write down the reported inhibition index of NCCCCCC(=O)O [6-aminocaproate, 6-aminocaproic acid] , test system: human apolactoferrin (HLF) (Homo sapiens, UniProt P02788).
7.9 (3.4)

Write down the reported inhibition index of NCCCCCCC(=O)O [7-aminoheptanoate, 7-aminoheptanoic acid] , test system: human apolactoferrin (HLF) (Homo sapiens, UniProt P02788).
4.7 (0.7)

Write down the reported inhibition index of NCCCCCN [1,5-diaminopentane] , test system: human apolactoferrin (HLF) (Homo sapiens, UniProt P02788).
28.8 (13.3)

Write down the reported inhibition index of O=C([O-])CC(=O)[O-].[Na+].[Na+] [malonate, sodium malonate] , test system: human apolactoferrin (HLF) (Homo sapiens, UniProt P02788).
1714.1

----------
Target: chicken egg white lysozyme (Gallus gallus, UniProt P00698)
Construct: chicken egg white lysozyme [Sigma]; purchased Sigma; host or cells: egg white
Sequence (P00698 19-147): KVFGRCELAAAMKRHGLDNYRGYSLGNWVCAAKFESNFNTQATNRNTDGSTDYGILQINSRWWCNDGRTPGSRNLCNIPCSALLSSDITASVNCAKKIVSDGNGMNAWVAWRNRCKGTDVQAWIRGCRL
Assay: Lysozyme aggregation (turbidity at 360 nm) induced by DTT
Format: biochemical
Details: Lysozyme 0.4 mg/mL, 25° C., DTT; compound 1,000×; standard deviation in parenthesis
Assay endpoint: inhibition index

Below: 5 molecules and their reported inhibition index.
Sample NCCCCCN — what was its inhibition index?
1.3 (0.3)

Sample O=C([O-])CC(=O)[O-].[Na+].[Na+] [malonate, sodium malonate] — what was its inhibition index?
1.5 (0.4)

Sample NCCC(=O)O — what was its inhibition index?
1.1 (0.3)

Sample NCCCCCCCN — what was its inhibition index?
1.0 (0.3)

Sample NCCCCCCC(=O)O [7-aminoheptanoate, 7-aminoheptanoic acid] — what was its inhibition index?
1.3 (0.2)

---
Sample NCCN — what was its inhibition index?
70.2 (6.8)

Sample O=C(O)CCC(=O)O [succinate, succinic acid] — what was its inhibition index?
1.0 (0.3)

----------
Target: porcine somatotropin (pST) (Sus scrofa, UniProt P01248)
Construct: purchased Pfizer, Inc., Groton, Conn., USA (provided, not bought)
Sequence (P01248 27-216): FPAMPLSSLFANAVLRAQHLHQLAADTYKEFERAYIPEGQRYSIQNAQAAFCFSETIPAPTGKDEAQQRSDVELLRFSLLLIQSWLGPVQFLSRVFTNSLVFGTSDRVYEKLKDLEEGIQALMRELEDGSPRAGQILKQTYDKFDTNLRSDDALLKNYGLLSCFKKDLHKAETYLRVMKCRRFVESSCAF
Assay: Porcine somatotropin aggregation (turbidity at 360 nm) with PEG 8000
Assay type: biochemical
Conditions: pST 1.27 mg/mL, 60° C., compound 2,000X, standard deviation in parenthesis
Residues, ends and D or L forms follow the SMILES beside them.
inhibition index values by entry

Below: 3 compounds and their reported inhibition index.
Sample NCCCCCCCN [1,7-diaminoheptane] — what was its inhibition index?
1.6( 0.7)

Sample NCC(=O)NCC(=O)NCC(=O)O [triglycine] (H-Gly-Gly-Gly-OH) — what was its inhibition index?
2.5 (0.3)

Sample O=C(O)CCCCCC(=O)O [pimelate, pimelic acid] — what was its inhibition index?
1.5 (0.4)

---
Sample NCCCCN [1,4-diaminobutane] — what was its inhibition index?
1.4 (0.4)

Sample O=C(O)CCCC(=O)O [glutarate, glutaric acid] — what was its inhibition index?
3.1 (0.7)

Sample NCCCC(=O)O [4-aminobuytrate, 4-aminobutyric acid] — what was its inhibition index?
1.1 (0.2)

src = patent US20030125234A1
